The values you see were collected from patent US12018066.

- assayed.system: SARS-CoV-2 spike protein receptor binding domain (RBD2) (SARS-CoV-2, UniProt P0DTC2 319-537)
- experiment.description: SPR, immobilized antibody, RBD injected, 1:1 fit
The entries below come with measured log10(Kd) values attached.
readout.type: log10(Kd) (log10 of the value in nM)

# binder, log10(Kd)
records = [
    ("R04 minibody (scFv-Fc) (Fc fusion) EIVMTQSPSSLSASVGDRVTITCQASQDISNYLNWCQQKPGKAPKLLIYDASNLETGVPSRFSGSGSGTGFTFTISSLQPEDFATYYCQQSYSTPYTFGQGTKVEIKSGGSTITSYNVNYTKLSSSGAQVQLQQSGPGLVKSSQTLSLTCAISGDSVSSNGAAWHWIRQSPSRGLEWLGRTYYRSGWYNDYAVSVKSRITINQDTSKNQFSLQLNSVTPEDTAVYFCAREGGGGRMDVWSQGTTVTVSS", 2.11),
    ("H01 IgG1 (antibody, V domains shown, also called H1) VH: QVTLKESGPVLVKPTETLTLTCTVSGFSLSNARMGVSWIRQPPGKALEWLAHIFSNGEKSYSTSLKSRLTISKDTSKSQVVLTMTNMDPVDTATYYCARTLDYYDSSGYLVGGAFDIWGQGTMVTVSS VL: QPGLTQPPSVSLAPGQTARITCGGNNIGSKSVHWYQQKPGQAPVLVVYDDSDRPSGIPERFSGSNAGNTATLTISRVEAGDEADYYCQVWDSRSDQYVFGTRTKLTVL", 2.90),
    ("E01 IgG1 (antibody, V domains shown, also called E1) VH: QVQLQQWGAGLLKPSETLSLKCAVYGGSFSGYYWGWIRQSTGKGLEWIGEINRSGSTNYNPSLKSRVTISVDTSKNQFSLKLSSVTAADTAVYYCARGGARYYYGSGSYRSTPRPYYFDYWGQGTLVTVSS VL: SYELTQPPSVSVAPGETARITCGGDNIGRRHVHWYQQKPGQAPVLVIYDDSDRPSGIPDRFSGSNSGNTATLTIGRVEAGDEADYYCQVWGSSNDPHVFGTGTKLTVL", 1.95),
    ("D04 minibody (scFv-Fc) (Fc fusion) SYVLTQPPSVSVAPGKTARITCGGNNIGWKSVHWYQQKPGQAPVLVVYNDNDRPSGVPERFSGSNSGNTATLTISRVVAGDEADYYCQVWDSSSDHVLFGGGTKLTVLSGGSTITSYNVYYTKLSSSGTQVQLVQSGAEVKKPGSSVKVSCKASGGTFSSYAISWVRQAPGQGLEWMGGIIPIFGTANYAQKFQGRVTITADESTSTAYMELSSLRSEDTAVYYCARASGRWLQFWHYYGMDVWGQGTTVTVS", 2.09),
    ("H02 minibody (scFv-Fc) (Fc fusion) QSVVTQPPSVSAAPGQKVTISCSGSSSNIGNNYVSWYQQLPGTAPKLLIYRDTQRPSGVPDRFSGSKSGTSASLAISGLRSEDEADYYCATWDKSLSGPVFGGGTKVTVLSGGSTITSYNVYYTKLSSSGTQVQLQQSGPGLVKPSQTLSLTCAISGDSVSSNSAAWNWIRQSPSRGLEWLGRTYYRSKWYNDYAVSVKSRIIINPDTSKNQFSLQLNSVTPEDTAVYYCARQDNNPYYGLDVWGQGTTVTVSS", 1.19),
]
